assayTarget: Avi-KRAS G12R (1-169) GppNHp/RAF1 RBD-3xFLAG (52-151) (Homo sapiens, UniProt P01116, G12R)
Construct: Avi-KRAS G12R (1-169)
Sequence (P01116 1-169 isoform P01116-2 G12R): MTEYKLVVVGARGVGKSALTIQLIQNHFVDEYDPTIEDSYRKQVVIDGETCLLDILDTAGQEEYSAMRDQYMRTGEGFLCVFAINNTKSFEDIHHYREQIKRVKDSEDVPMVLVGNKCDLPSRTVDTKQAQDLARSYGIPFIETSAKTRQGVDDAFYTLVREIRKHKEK
experimentSummary: Raf1-KRAS G12R-GppNHP disruption HTRF assay (Biological Example 1)
Assay type: binding
measurementParameters: KRAS G12R, GppNHp-loaded; Table 11
Quick reference for IC50 among some compounds
measureName: IC50

>>> result("CC(=O)N1CCCN(c2nc(OC[C@@]34CCCN3C[C@H](F)C4)nc3c(F)c(-c4ccc(F)c5sc(N)c(C#N)c45)c(C(F)(F)F)cc23)CC1 [Compound 278]")
"100 to 1000 nM"
>>> result("CC(=O)N1CC[C@@H](N(C)c2nc(OC[C@@]34CCCN3C[C@H](F)C4)nc3c(F)c(-c4ccc(F)c5sc(N)c(C#N)c45)c(C(F)(F)F)cc23)[C@H]1C (single isomer, unassigned) [Compound 193]")
"< 100 nM"
>>> result("CC(C)C(=O)N1CC[C@@H](N(C)c2nc(OC[C@@]34CCCN3C[C@H](F)C4)nc3c(F)c(-c4ccc(F)c5sc(N)c(C#N)c45)c(C(F)(F)F)cc23)[C@H]1C [Compound 261]")
"100 to 1000 nM"
>>> result("CC(=O)N1CCN(c2nc(OC[C@@]34CCCN3C[C@H](F)C4)nc3c(F)c(-c4ccc(F)c5sc(N)c(C#N)c45)c(C(F)(F)F)cc23)C[C@H]1C [Compound 229]")
"1000 to 10000 nM"
>>> result("N#Cc1c(N)sc2c(F)ccc(-c3c(C(F)(F)F)cc4c(N5CC[C@H](O)C5)nc(OC[C@@]56CCCN5C[C@H](F)C6)nc4c3F)c12 [Compound 125]")
"100 to 1000 nM"

====

Quick reference for IC50 among some compounds
assayTarget: Avi-KRAS G12V (2-169) GTP/RAF1 RBD-3xFLAG (51-131) (Homo sapiens, UniProt P01116, G12V)
Construct: Avi-KRAS G12V (2-169)
Sequence (P01116 2-169 isoform P01116-2 G12V): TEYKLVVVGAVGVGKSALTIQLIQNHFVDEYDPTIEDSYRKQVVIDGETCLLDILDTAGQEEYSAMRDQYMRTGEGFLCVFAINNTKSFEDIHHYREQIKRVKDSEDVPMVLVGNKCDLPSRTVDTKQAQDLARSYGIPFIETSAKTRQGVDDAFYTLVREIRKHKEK
experimentSummary: Raf1-KRAS G12V-GTP disruption HTRF assay (Biological Example 3)
Type: binding
measurementParameters: KRAS G12V, GTP-loaded
measureName: IC50

>>> result("CCN(c1nc(OC[C@@]23CCCN2C[C@H](F)C3)nc2c(F)c(-c3ccc(F)c4sc(N)c(C#N)c34)c(C(F)(F)F)cc12)[C@H]1C[C@H]2[C@@H](C)N(C)C(=O)N2C1 (atropisomer, axis not shown)")
"0.1 to 1 µM"
>>> result("N#Cc1c(N)sc2c(F)ccc(-c3c(C(F)(F)F)cc4c(N5CC6CC(C5)O6)nc(OC[C@@]56CCCN5C[C@H](F)C6)nc4c3F)c12 (single isomer, unassigned) [Compound 275]")
"0.1 to 1 µM"
>>> result("CCN(c1nc(OC[C@@]23CCCN2C[C@H](F)C3)nc2c(F)c(-c3ccc(F)c4sc(N)c(C#N)c34)c(C(F)(F)F)cc12)[C@H]1CCN(C(=O)OC)C1 [Compound 394]")
"0.1 to 1 µM"
>>> result("[2H][C@]1(N(CC)c2nc(OC[C@@]34CCCN3C[C@H](F)C4)nc3c(F)c(-c4ccc(F)c5sc(N)c(C#N)c45)c(C(F)(F)F)cc23)CCN(C(=O)N(C)C)C1 (atropisomer, axis not shown)")
"0.1 to 1 µM"
>>> result("CCN(c1nc(OC[C@@]23CCCN2C[C@H](F)C3)nc2c(F)c(-c3ccc(F)c4sc(N)c(C#N)c34)c(C(F)(F)F)cc12)[C@H]1CCN(C(=O)c2ccon2)C1 (atropisomer, axis not shown)")
"0.1 to 1 µM"
>>> result("CCN(c1nc(OC[C@@]23CCCN2C[C@H](F)C3)nc2c(F)c(-c3ccc(F)c4sc(N)c(C#N)c34)c(C(F)(F)F)cc12)[C@H]1C[C@H](COC)N(C(=O)[C@@H]2CC2(F)F)C1 (atropisomer, axis not shown)")
"0.1 to 1 µM"
>>> result("Cc1c(C(=O)N2CCOCC2)nn2c1CN(c1nc(OCC34CCCN3CC(F)C4)nc3c(F)c(-c4ccc(F)c5sc(N)c(C#N)c45)c(C(F)(F)F)cc13)CC2 (stereo not drawn)")
"0.1 to 1 µM"
>>> result("CCN(c1nc(OC[C@@]23CCCN2C[C@H](F)C3)nc2c(F)c(-c3ccc(F)c4sc(N)c(C#N)c34)c(C(F)(F)F)cc12)[C@H]1C[C@@H]2CN(C)C(=O)N2C1 (atropisomer, axis not shown)")
"0.1 to 1 µM"
>>> result("N#Cc1c(N)sc2c(F)ccc(-c3c(C(F)(F)F)cc4c(N5CCCC[C@@H](O)C5)nc(OC[C@@]56CCCN5C[C@H](F)C6)nc4c3F)c12")
"0.1 to 1 µM"
>>> result("CCN(c1nc(OC[C@@]23CCCN2C[C@H](F)C3)nc2c(F)c(-c3ccc(F)c4sc(N)c(C#N)c34)c(C(F)(F)F)cc12)[C@H]1C[C@H]2CN(C)C(=O)N2C1 (atropisomer, axis not shown; (aS))")
"≤ 0.1 µM"
>>> result("CN(Cc1cnoc1)c1nc(OC[C@@]23CCCN2C[C@H](F)C3)nc2c(F)c(-c3ccc(F)c4sc(N)c(C#N)c34)c(C(F)(F)F)cc12 (atropisomer, axis not shown)")
"0.1 to 1 µM"
>>> result("CCN(c1nc(OC[C@@]23CCCN2C[C@H](F)C3)nc2c(F)c(-c3ccc(F)c4sc(N)c(C#N)c34)c(C(F)(F)F)cc12)[C@H]1CCN(C(=O)c2ccc(C)s2)C1 (atropisomer, axis not shown)")
"0.1 to 1 µM"
>>> result("CCN(c1nc(OC[C@@]23CCCN2C[C@H](F)C3)nc2c(F)c(-c3ccc(F)c4sc(N)c(C#N)c34)c(C(F)(F)F)cc12)[C@H]1CCN(C(=O)[C@H]2CCO2)C1 (atropisomer, axis not shown)")
"≤ 0.1 µM"
>>> result("CCN(c1nc(OC[C@@]23CCCN2C[C@H](F)C3)nc2c(F)c(-c3ccc(F)c4sc(N)c(C#N)c34)c(C(F)(F)F)cc12)[C@H]1CCN(C(C)=O)[C@@H]1COC (atropisomer, axis not shown)")
"0.1 to 1 µM"
>>> result("CCN(c1nc(OC[C@@]23CCCN2C[C@H](F)C3)nc2c(F)c(-c3ccc(F)c4sc(N)c(C#N)c34)c(C(F)(F)F)cc12)[C@H]1CCN(C(=O)N2CC(OC)C2)C1 (atropisomer, axis not shown)")
"≤ 0.1 µM"
>>> result("CN(Cc1ccccc1)c1nc(OC[C@@]23CCCN2C[C@H](F)C3)nc2c(F)c(-c3ccc(F)c4sc(N)c(C#N)c34)c(C(F)(F)F)cc12 (atropisomer, axis not shown)")
"> 10 µM"
>>> result("CN(c1nc(OCC23CCCN2CC(F)C3)nc2c(F)c(-c3ccc(F)c4sc(N)c(C#N)c34)c(C(F)(F)F)cc12)C1CCc2ccncc21 (stereo not drawn) [Compound 961]")
"1 to 10 µM"
>>> result("CCN1C[C@@H](N(CC)c2nc(OC[C@@]34CCCN3C[C@H](F)C4)nc3c(F)c(-c4ccc(F)c5sc(N)c(C#N)c45)c(C(F)(F)F)cc23)CC1=O")
"≤ 0.1 µM"

====

assayTarget: Avi-KRAS G12D (1-169) GppNHp/RAF1 RBD-3xFLAG (52-151) (Homo sapiens, UniProt P01116, G12D)
Construct: Avi-KRAS G12D (1-169)
Sequence (P01116 1-169 isoform P01116-2 G12D): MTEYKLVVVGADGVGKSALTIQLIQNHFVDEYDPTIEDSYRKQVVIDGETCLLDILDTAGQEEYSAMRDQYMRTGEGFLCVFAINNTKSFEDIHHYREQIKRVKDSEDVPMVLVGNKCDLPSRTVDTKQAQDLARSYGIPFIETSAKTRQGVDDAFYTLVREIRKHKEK
experimentSummary: Raf1-KRAS G12D-GppNHP disruption HTRF assay (Biological Example 1)
Assay type: binding
measurementParameters: KRAS G12D, GppNHp-loaded; Table 11
Method: A protein:protein interaction (PPI) Homogeneous Time Resolved Fluorescence (HTRF) assay was used to determine the effectiveness of compounds of the present disclosure in disrupting KRAS protein and effector RAF1 binding. The assay buffer included: 50 mM Tris pH 7.5, 100 mM NaCl, 5 mM MgCl2, 0.1% BSA, 0.01% Tween, and 10% DMSO. The bead buffer included: 50 mM Tris pH 7.5, and 0.01% Tween 20. […] Data was reported as percentage of activity, with DMSO as 100%. Data was plotted and analyzed using Prism 8.
measureName: IC50

>>> result("N#Cc1c(N)sc2c(F)ccc(-c3c(C(F)(F)F)cc4c(N5CCCC5)nc(OC[C@@]56CCCN5C[C@H](F)C6)nc4c3F)c12")
"100 to 1000 nM"
>>> result("CN(c1nc(OC[C@@]23CCCN2C[C@H](F)C3)nc2c(F)c(-c3ccc(F)c4sc(N)c(C#N)c34)c(C(F)(F)F)cc12)[C@@H]1CCCOC1")
"100 to 1000 nM"
>>> result("CCN(CCO)c1nc(OC[C@@H]2C[C@@H](F)CN2C)nc2c(F)c(-c3ccc(F)c4sc(N)c(C#N)c34)c(C(F)(F)F)cc12")
"100 to 1000 nM"
>>> result("N#Cc1c(N)sc2c(F)ccc(-c3c(C(F)(F)F)cc4c(N5CCOCC(O)C5)nc(OC[C@@]56CCCN5C[C@H](F)C6)nc4c3F)c12 (stereo partly drawn)")
"< 100 nM"
>>> result("N#Cc1c(N)sc2c(F)ccc(-c3c(C(F)(F)F)cc4c(N5CCC(F)(F)C5)nc(OC[C@@]56CCCN5C[C@H](F)C6)nc4c3F)c12")
"100 to 1000 nM"
>>> result("CC(=O)N1CC[C@@H](N(C)c2nc(OC[C@@]34CCCN3C[C@H](F)C4)nc3c(F)c(-c4ccc(F)c5sc(N)c(C#N)c45)c(C(F)(F)F)cc23)[C@@H]1C")
"100 to 1000 nM"

Reference source: patent US20260042764A1
